system: BMSC (primary human bone marrow mesenchymal stromal cells); experiment: absolute EC50 for viability; higher = less sensitive

compound	absolute EC50 for viability
Cn1cncc1[C@@](N)(c1ccc(Cl)cc1)c1ccc2c(c1)c(-c1cccc(Cl)c1)cc(=O)n2C	> 10 µM
CNC(=O)c1ccccc1Nc1cc(Nc2ccc(N3CCOCC3)cc2OC)ncc1C(F)(F)F	> 10 µM
COc1c(OCCCN2CCOCC2)ccc2c3n(c(=NC(=O)c4cnc(N)nc4)nc12)CCN3	0.126 µM
C[C@H](Nc1ncnc2[nH]cnc12)c1cc2ccc(F)cc2nc1-c1ccccn1	> 1 µM
CC(C)N(CCCNC(=O)Nc1ccc(C(C)(C)C)cc1)C[C@H]1O[C@@H](n2cc(Br)c3c(N)ncnc32)[C@H](O)[C@@H]1O	> 10 µM
Cc1ccc(NC(=O)c2ccc(CN3CC[C@H](N(C)C)C3)c(C(F)(F)F)c2)cc1Nc1nccc(-c2cncnc2)n1	> 1 µM
C=CC(=O)N1CCC(Oc2cc3c(Nc4ccc(Cl)c(Cl)c4F)ncnc3cc2OC)CC1	> 1 µM
O=C(Nc1cccc(NC(=O)c2cccc(O)c2O)c1)c1cccc(O)c1O	1.22 µM
C/C=C1\NC(=O)[C@H]2CSSCC/C=C/[C@H](CC(=O)N[C@H](C(C)C)C(=O)N2)OC(=O)[C@H](C(C)C)NC1=O	0.0097 µM
Nc1nc2[nH]cc(CCc3ccc(C(=O)N[C@@H](CCC(=O)O)C(=O)O)cc3)c2c(=O)[nH]1	> 10 µM
CN(C)C(=O)c1cc2cnc(Nc3ccc(N4CCNCC4)cn3)nc2n1C1CCCC1	> 10 µM
C=CCN(/C=C1/C(=O)O[C@H](COC)[C@@]2(C)C1=C(O)C(=O)C1=C2[C@H](OC(C)=O)C[C@]2(C)C(=O)CC[C@@H]12)CC=C	> 10 µM
C=C1C[C@@H]2CC[C@@]34C[C@H]5O[C@H]6[C@@H](O3)[C@H]3O[C@H](CC[C@@H]3O[C@H]6[C@H]5O4)CC(=O)C[C@@H]3[C@@H](OC)[C@@H](C[C@H](O)CN)O[C@H]3C[C@H]3O[C@@H](CC[C@@H]1O2)C[C@@H](C)C3=C	> 1 µM
Cc1ncc(Cl)cc1NCc1ccc(C(=O)N[C@@H](CC2CCCC2)C(=O)NC2CC2)s1	> 5 µM
COc1cc([C@@H]2c3cc4c(cc3[C@@H](O[C@@H]3O[C@@H]5CO[C@@H](C)O[C@H]5[C@H](O)[C@H]3O)[C@H]3COC(=O)[C@H]23)OCO4)cc(OC)c1O [Etoposide]	> 10 µM
CN(C)CC#Cc1ccc(OCCCc2sc(N3CCc4cccc(C(=O)Nc5nc6ccccc6s5)c4C3)nc2C(=O)O)c(F)c1	> 10 µM
COc1cccc2c1C(=O)c1c(O)c3c(c(O)c1C2=O)C[C@@](O)(C(=O)CO)C[C@@H]3O[C@H]1C[C@H](N)[C@H](O)[C@H](C)O1	0.219 µM
